- System: S. aureus (MTCC737)
- Assay remarks: Agar well diffusion
- Measurement parameters: Staphylococcus aureus, MTCC737
// reported zone of inhibition at 50 µg/mL for each item listed
Quick reminder: number only, in mm, skip the unit.

Example entries begin here.
Compound	Unit text	zone of inhibition at 50 µg/mL
COc1ccnc(-c2cc(OC)cc(C(=NO)c3ccccc3OC)n2)c1	mm	13.7
C#CCOc1cc(C(=NO)c2ccccc2OC)nc(-c2ccccn2)c1	mm	14
COc1ccccc1C(=NO)c1cc(C)cc(-c2cc(C)ccn2)n1	mm	19

Please examine the following record next.
Any idea what its zone of inhibition at 50 µg/mL is? The compound is CN[C@H](CC(C)C)C(=O)N[C@H]1C(=O)N[C@@H](CC(N)=O)C(=O)N[C@H]2C(=O)N[C@H]3C(=O)N[C@H](C(=O)N[C@H](C(=O)O)c4cc(O)cc(O)c4-c4cc3ccc4O)[C@H](O)c3ccc(c(Cl)c3)Oc3cc2cc(c3O[C@@H]2O[C@H](CO)[C@@H](O)[C@H](O)[C@H]2O[C@H]2C[C@](C)(N)[C@H](O)[C@H](C)O2)Oc2ccc(cc2Cl)[C@H]1O [Vancomycin, reference compound]
14
